All values here come from PubChem BioAssay AID1845217.

Assign IC50 to each entry below.
# System: VA-ES-BJ tumor spheroid viability
# testDescription: Anticancer human tumor VA-ES-BJ cell line growth inhibition;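 further: spheroids exposed to compounds for seven days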
# experimentalParameters: curve of first compound; second compound 0.3 µM; spheroids with HUVEC and MSC

Solved cases (5 shown):
CC1COCCN1c1cc(-c2ccnn2C)c2ccnc(-c3ccn[nH]3)c2n1 (configuration not stated) + CC[C@@]1(O)C(=O)OCc2c1cc1n(c2=O)Cc2cc3c(CN(C)C)c(O)ccc3nc2-1    < 31.6 nM
Cc1cc(C)c(CNC(=O)c2cc(-c3ccc(CN4CCOCC4)cc3)cc3c2cnn3C2CCCC2)c(=O)[nH]1 + CC[C@@]1(O)C(=O)OCc2c1cc1n(c2=O)Cc2cc3c(CN(C)C)c(O)ccc3nc2-1    < 31.6 nM
CC(C)n1c(=O)n(C)c2cnc3cc(F)c(-c4ccc(OCCCN5CCCCC5)nc4)cc3c21 + CC[C@@]1(O)C(=O)OCc2c1cc1n(c2=O)Cc2cc3c(CN(C)C)c(O)ccc3nc2-1    < 31.6 nM
O=C(c1cc(Cc2n[nH]c(=O)c3ccccc23)ccc1F)N1CCN(C(=O)C2CC2)CC1 + CC[C@@]1(O)C(=O)OCc2c1cc1n(c2=O)Cc2cc3c(CN(C)C)c(O)ccc3nc2-1    < 94.9 nM
Cc1sc2c(c1C)C(c1ccc(Cl)cc1)=NC(CC(=O)Nc1ccc(O)cc1)c1nnc(C)n1-2 (configuration not stated) + CC[C@@]1(O)C(=O)OCc2c1cc1n(c2=O)Cc2cc3c(CN(C)C)c(O)ccc3nc2-1    < 9.49 nM

Record IC50 for all entries; do not skip any.
1. COc1cc(C)[nH]c(=O)c1CN1CCc2c(Cl)cc(C(OC)C3COC3)c(Cl)c2C1=O (configuration not stated) + CC[C@@]1(O)C(=O)OCc2c1cc1n(c2=O)Cc2cc3c(CN(C)C)c(O)ccc3nc2-1
2. COc1ccc([C@@H](O)c2cc(-c3ncnc4cc(N5CCOCC5)ccc34)c(F)cc2Cl)nn1 + CC[C@@]1(O)C(=O)OCc2c1cc1n(c2=O)Cc2cc3c(CN(C)C)c(O)ccc3nc2-1

A)
1: < 31.6 nM; 2: < 31.6 nM

====

# System: VA-ES-BJ tumor spheroid viability
# testDescription: Anticancer human tumor VA-ES-BJ cell line growth inhibition; active = viability on the fitted dose curve at most 10% of control; inactive = the rest;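 further: spheroids exposed to compounds for seven days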
# experimentalParameters: second compound 31.6 µM; first compound 3 µM; spheroids with HUVEC and MSC
Classes to choose from: active, inactive

Here are 3 compounds together with their reported answers.
Cn1ncnc1[C@H]1c2n[nH]c(=O)c3cc(F)cc(c23)N[C@@H]1c1ccc(F)cc1 + Cn1nnc2c(C(N)=O)ncn2c1=O    active
Cc1sc2c(c1C)C(c1ccc(Cl)cc1)=NC(CC(=O)Nc1ccc(O)cc1)c1nnc(C)n1-2 (centres undefined) + Cn1nnc2c(C(N)=O)ncn2c1=O    inactive
CNCc1ccc(-c2cc(-c3nc(-c4ccc(S(=O)(=O)C(C)C)cc4)cnc3N)on2)cc1 + Cn1nnc2c(C(N)=O)ncn2c1=O    active

Shift focus to the following entry.
Q) In this assay, the call recorded for O=C(c1cc(Cc2n[nH]c(=O)c3ccccc23)ccc1F)N1CCN(C(=O)C2CC2)CC1 + Cn1nnc2c(C(N)=O)ncn2c1=O was what?
A) inactive

====

# Tested on: VA-ES-BJ tumor spheroid viability
# testDescription: Anticancer human tumor VA-ES-BJ cell line growth inhibition; active = viability on the fitted dose curve at most 10% of control; inactive = the rest;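 further: spheroids exposed to compounds for seven days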
# experimentalParameters: second compound 0.03 µM; first compound 0.949 µM; spheroids with HUVEC and MSC
Classes to choose from: yes for active, no for inactive

Cn1ncnc1[C@H]1c2n[nH]c(=O)c3cc(F)cc(c23)N[C@@H]1c1ccc(F)cc1 + CC[C@@]1(O)C(=O)OCc2c1cc1n(c2=O)Cc2cc3c(CN(C)C)c(O)ccc3nc2-1    yes
CNCc1ccc(-c2cc(-c3nc(-c4ccc(S(=O)(=O)C(C)C)cc4)cnc3N)on2)cc1 + CC[C@@]1(O)C(=O)OCc2c1cc1n(c2=O)Cc2cc3c(CN(C)C)c(O)ccc3nc2-1    no
O=C(c1cc(Cc2n[nH]c(=O)c3ccccc23)ccc1F)N1CCN(C(=O)C2CC2)CC1 + CC[C@@]1(O)C(=O)OCc2c1cc1n(c2=O)Cc2cc3c(CN(C)C)c(O)ccc3nc2-1    yes

Shift focus to the following entry.
Q) In this assay, the call recorded for Cc1sc2c(c1C)C(c1ccc(Cl)cc1)=NC(CC(=O)Nc1ccc(O)cc1)c1nnc(C)n1-2 (centres undefined) + CC[C@@]1(O)C(=O)OCc2c1cc1n(c2=O)Cc2cc3c(CN(C)C)c(O)ccc3nc2-1 was what?
A) yes
